# credit: patent US20080021044A1

Assay: Solubility of the compound of formula (I) as a function of time in aqueous solvents (HPLC)
Format: physicochemical
Conditions: simulated gastric fluid, thermodynamic from solid; 0.1N HCl; 1 hr; 25° C. water bath, agitated
MEASURED METRIC: solubility at 1 h (mg/mL)
Field format: number, assumed mg/mL, no unit text.

[Q] For the compound shown here, Cc1cnc(NCC(F)(F)c2ccccc2)c(=O)n1CC(=O)NCCONC(=N)N , give the reported solubility at 1 h.
[A] 40.2

----------
Experiment: Solubility of the compound of formula (I) as a function of time in aqueous solvents (HPLC)
Assay type: physicochemical
Settings: aqueous buffer, thermodynamic from solid; 0.1N NaOH (pH ˜12.8); 48 hr; 25° C. water bath, agitated
MEASURED METRIC: solubility at 48 h

[Q] For the compound shown here, Cc1cnc(NCC(F)(F)c2ccccc2)c(=O)n1CC(=O)NCCONC(=N)N [compound of formula (I)] , give the reported solubility at 48 h.
[A] 990 µg/mL
